Target: Vascular endothelial growth factor receptor 2 (Homo sapiens, UniProt P35968)
Sequence (P35968 whole entry): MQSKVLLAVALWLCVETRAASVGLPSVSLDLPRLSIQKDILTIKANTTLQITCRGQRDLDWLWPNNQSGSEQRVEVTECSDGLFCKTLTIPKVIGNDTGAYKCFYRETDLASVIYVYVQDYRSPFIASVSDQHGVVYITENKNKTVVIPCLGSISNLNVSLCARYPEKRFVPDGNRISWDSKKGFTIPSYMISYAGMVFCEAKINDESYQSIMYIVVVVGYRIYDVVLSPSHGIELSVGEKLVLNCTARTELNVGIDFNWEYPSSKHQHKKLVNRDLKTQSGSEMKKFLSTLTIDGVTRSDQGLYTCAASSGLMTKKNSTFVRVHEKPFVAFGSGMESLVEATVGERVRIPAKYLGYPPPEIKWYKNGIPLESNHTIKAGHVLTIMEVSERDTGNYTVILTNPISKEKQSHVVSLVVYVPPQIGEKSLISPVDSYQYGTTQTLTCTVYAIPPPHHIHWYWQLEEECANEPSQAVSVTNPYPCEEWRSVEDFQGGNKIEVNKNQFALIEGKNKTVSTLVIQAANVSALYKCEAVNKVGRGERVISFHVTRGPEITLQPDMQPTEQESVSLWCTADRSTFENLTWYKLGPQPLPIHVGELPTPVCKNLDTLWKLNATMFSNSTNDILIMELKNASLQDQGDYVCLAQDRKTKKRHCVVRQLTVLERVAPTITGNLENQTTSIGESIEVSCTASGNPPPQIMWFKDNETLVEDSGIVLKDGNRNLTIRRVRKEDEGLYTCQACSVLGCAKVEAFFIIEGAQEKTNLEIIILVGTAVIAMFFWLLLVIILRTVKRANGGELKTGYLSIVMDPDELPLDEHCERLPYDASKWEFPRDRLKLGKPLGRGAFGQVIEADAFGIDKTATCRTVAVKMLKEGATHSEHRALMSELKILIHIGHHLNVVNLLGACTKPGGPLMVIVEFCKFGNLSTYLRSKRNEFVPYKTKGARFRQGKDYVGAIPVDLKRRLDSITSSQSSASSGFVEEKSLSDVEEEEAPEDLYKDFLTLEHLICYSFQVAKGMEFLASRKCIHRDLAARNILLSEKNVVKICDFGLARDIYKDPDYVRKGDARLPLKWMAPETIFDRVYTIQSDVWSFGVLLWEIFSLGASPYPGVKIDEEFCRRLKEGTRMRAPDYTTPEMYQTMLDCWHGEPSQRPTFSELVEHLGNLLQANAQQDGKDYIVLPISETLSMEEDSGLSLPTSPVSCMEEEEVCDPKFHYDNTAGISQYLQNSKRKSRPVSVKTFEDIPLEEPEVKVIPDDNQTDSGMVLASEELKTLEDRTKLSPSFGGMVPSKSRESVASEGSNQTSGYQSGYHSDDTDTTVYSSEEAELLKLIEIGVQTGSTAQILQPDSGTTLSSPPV
Assay: Inhibition of GST tagged VEGFR2 expressed in Sf9 cells
pIC50: −log10 of the molar value.
Mark MET for reported pIC50 of 7 or greater; mark NOT MET for anything smaller.

item.smiles | label.value
CN1CCN(C(=O)c2cc3nccc(Oc4ccc(NC(=S)NC(=O)Cc5ccccc5)cc4F)c3s2)CC1 | NOT MET
Cn1cccc1-c1cc2nccc(Oc3ccc(NC(=S)NC(=O)Cc4ccccc4)cc3F)c2s1 | MET
O=C(Cc1ccccc1)NC(=S)Nc1ccc(Oc2ccnc3cc(-c4ccoc4)sc23)c(F)c1 | NOT MET

====

Assay: AUC in Sprague-Dawley rat at 5 mg/kg, po
Assay type: ADME, organism-based
Design: dose 5 mg/kg, route oral
Settings: plasma

item.smiles | AUC, µM·h
Cn1cnc(-c2cc3nccc(Oc4ccc(NC(=S)NC(=O)Cc5ccccc5)cc4F)c3s2)c1 | 0.74

====

Listed molecules paired with reported log10 IC50
Molecular target: Vascular endothelial growth factor receptor 2 (Homo sapiens, UniProt P35968)
Test: Inhibition of GST tagged VEGFR2 expressed in Sf9 cells
measurement.kind: log10 IC50 (log10 of the value in nM)

item.smiles | target.under.test | log10 IC50
CN(C)C(=O)c1cc2nccc(Oc3ccc(NC(=S)NC(=O)Cc4ccccc4)cc3F)c2s1 | Vascular endothelial growth factor receptor 2 (Homo sapiens, UniProt P35968) | 1.28
CSc1cc2nccc(Oc3ccc(NC(=S)NC(=O)Cc4ccccc4)cc3F)c2s1 | Vascular endothelial growth factor receptor 2 (Homo sapiens, UniProt P35968) | 2.54
Cn1cnc(-c2cc3nccc(Oc4ccc(NC(=S)NC(=O)Cc5ccccc5)cc4F)c3s2)c1 | Vascular endothelial growth factor receptor 2 (Homo sapiens, UniProt P35968) | 1.00
O=C(Cc1ccccc1)NC(=S)Nc1ccc(Oc2ccnc3cc(-c4ccccn4)sc23)c(F)c1 | Vascular endothelial growth factor receptor 2 (Homo sapiens, UniProt P35968) | 1.23
CCn1ccnc1-c1cc2nccc(Oc3ccc(NC(=S)NC(=O)Cc4ccccc4)cc3F)c2s1 | Vascular endothelial growth factor receptor 2 (Homo sapiens, UniProt P35968) | 1.40
CNC(=O)c1cc2nccc(Oc3ccc(NC(=S)NC(=O)Cc4ccccc4)cc3F)c2s1 | Vascular endothelial growth factor receptor 2 (Homo sapiens, UniProt P35968) | 2.12
Cn1ccnc1-c1cc2nccc(Oc3ccc(NC(=S)NC(=O)Cc4ccccc4)cc3F)c2s1 | Vascular endothelial growth factor receptor 2 (Homo sapiens, UniProt P35968) | 1.00
CCN(CC)C(=O)c1cc2nccc(Oc3ccc(NC(=S)NC(=O)Cc4ccccc4)cc3F)c2s1 | Vascular endothelial growth factor receptor 2 (Homo sapiens, UniProt P35968) | 2.59
O=C(Cc1ccccc1)NC(=S)Nc1ccc(Oc2ccnc3cc(-c4nccs4)sc23)c(F)c1 | Vascular endothelial growth factor receptor 2 (Homo sapiens, UniProt P35968) | 1.23

====

Biological target: Hepatocyte growth factor receptor (Homo sapiens)
Experiment: Inhibition of TPR-Met fusion protein assessed as Y1230-34-35 phosphorylation
Sequence (P08581 25-1390 limits assumed): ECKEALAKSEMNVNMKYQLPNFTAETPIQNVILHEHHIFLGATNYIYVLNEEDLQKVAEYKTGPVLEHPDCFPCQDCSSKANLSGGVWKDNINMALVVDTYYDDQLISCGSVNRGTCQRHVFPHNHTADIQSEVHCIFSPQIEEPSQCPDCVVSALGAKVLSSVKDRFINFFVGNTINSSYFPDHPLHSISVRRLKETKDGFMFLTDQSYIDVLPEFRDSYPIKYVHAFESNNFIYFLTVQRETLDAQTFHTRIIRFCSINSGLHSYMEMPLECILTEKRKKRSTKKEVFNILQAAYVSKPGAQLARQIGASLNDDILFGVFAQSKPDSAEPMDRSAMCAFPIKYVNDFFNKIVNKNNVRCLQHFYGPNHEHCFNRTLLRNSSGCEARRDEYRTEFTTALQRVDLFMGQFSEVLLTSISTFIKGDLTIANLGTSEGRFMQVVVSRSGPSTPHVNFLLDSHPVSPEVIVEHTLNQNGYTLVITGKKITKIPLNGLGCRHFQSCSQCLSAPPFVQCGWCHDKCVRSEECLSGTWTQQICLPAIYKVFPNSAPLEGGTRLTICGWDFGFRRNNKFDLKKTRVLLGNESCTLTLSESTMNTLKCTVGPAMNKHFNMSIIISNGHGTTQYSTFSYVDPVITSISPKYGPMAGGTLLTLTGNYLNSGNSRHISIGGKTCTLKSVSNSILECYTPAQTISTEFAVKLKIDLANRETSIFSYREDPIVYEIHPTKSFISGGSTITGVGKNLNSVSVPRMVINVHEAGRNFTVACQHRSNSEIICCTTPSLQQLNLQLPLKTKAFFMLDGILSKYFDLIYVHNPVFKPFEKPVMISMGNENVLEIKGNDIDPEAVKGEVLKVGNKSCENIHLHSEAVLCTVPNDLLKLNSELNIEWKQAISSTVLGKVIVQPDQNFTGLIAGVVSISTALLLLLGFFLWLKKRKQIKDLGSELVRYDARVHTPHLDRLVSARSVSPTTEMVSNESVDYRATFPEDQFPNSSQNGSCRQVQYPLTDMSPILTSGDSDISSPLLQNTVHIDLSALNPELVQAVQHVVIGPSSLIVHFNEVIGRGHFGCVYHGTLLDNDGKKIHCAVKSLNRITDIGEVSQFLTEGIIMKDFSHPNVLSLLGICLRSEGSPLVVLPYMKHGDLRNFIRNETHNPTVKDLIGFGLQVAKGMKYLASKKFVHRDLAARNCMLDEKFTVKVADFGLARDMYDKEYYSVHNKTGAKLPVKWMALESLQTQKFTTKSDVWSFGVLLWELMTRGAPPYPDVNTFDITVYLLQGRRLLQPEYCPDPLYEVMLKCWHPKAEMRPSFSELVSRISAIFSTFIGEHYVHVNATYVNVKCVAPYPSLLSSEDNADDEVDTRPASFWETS
pIC50: −log10 of the molar value.

item.smiles | target.under.test | pIC50
Cn1cnc(-c2cc3nccc(Oc4ccc(NC(=S)NC(=O)Cc5ccccc5)cc4F)c3s2)c1 | Hepatocyte growth factor receptor (Homo sapiens) | 7.92
Cn1ncnc1-c1cc2nccc(Oc3ccc(NC(=S)NC(=O)Cc4ccccc4)cc3F)c2s1 | Hepatocyte growth factor receptor (Homo sapiens) | 7.70
Cn1cccc1-c1cc2nccc(Oc3ccc(NC(=S)NC(=O)Cc4ccccc4)cc3F)c2s1 | Hepatocyte growth factor receptor (Homo sapiens) | 6.97
O=C(Cc1ccccc1)NC(=S)Nc1ccc(Oc2ccnc3cc(-c4nccs4)sc23)c(F)c1 | Hepatocyte growth factor receptor (Homo sapiens) | 7.55
CCn1ccnc1-c1cc2nccc(Oc3ccc(NC(=S)NC(=O)Cc4ccccc4)cc3F)c2s1 | Hepatocyte growth factor receptor (Homo sapiens) | 7.46
O=C(Cc1ccccc1)NC(=S)Nc1ccc(Oc2ccnc3cc(-c4cncnc4)sc23)c(F)c1 | Hepatocyte growth factor receptor (Homo sapiens) | 5.30
CCn1cnc(-c2cc3nccc(Oc4ccc(NC(=S)NC(=O)Cc5ccccc5)cc4F)c3s2)c1 | Hepatocyte growth factor receptor (Homo sapiens) | 7.66

====

Test: Half life in Beagle dog at 0.8 mg/kg, iv
Type: ADME, organism-based, Canis lupus familiaris
Parameters: dose 0.8 mg/kg, route intravenous
Conditions: in vivo

item.smiles | half-life
Cn1cnc(-c2cc3nccc(Oc4ccc(NC(=S)NC(=O)Cc5ccccc5)cc4F)c3s2)c1 | 5.8 h

====

Assay: Oral bioavailability in Sprague-Dawley rat at 5 mg/kg
Format: ADME, organism-based
Details: in vivo

item.smiles | bioavailability, %
Cn1cnc(-c2cc3nccc(Oc4ccc(NC(=S)NC(=O)Cc5ccccc5)cc4F)c3s2)c1 | 12

====

Listed compounds paired with reported IC50
Target: Vascular endothelial growth factor receptor 2 (Homo sapiens)
Assay: Inhibition of GST tagged VEGFR2 expressed in Sf9 cells

compound | target.under.test | IC50 (nM)
O=C(Cc1ccccc1)NC(=S)Nc1ccc(Oc2ccnc3ccsc23)c(F)c1 | Vascular endothelial growth factor receptor 2 (Homo sapiens) | 1130
O=C(Cc1ccccc1)NC(=S)Nc1ccc(Oc2ccnc3cc(-c4cncnc4)sc23)c(F)c1 | Vascular endothelial growth factor receptor 2 (Homo sapiens) | 175
CCn1cnc(-c2cc3nccc(Oc4ccc(NC(=S)NC(=O)Cc5ccccc5)cc4F)c3s2)c1 | Vascular endothelial growth factor receptor 2 (Homo sapiens) | 11
NC(=O)c1cc2nccc(Oc3ccc(NC(=S)NC(=O)Cc4ccccc4)cc3F)c2s1 | Vascular endothelial growth factor receptor 2 (Homo sapiens) | 129
CC(O)c1cc2nccc(Oc3ccc(NC(=S)NC(=O)Cc4ccccc4)cc3F)c2s1 (stereo not given) | Vascular endothelial growth factor receptor 2 (Homo sapiens) | 561

====

Assay: Tmax in Beagle dog at 5 mg/kg, po
Assay type: ADME, organism-based, Canis lupus familiaris
Parameters: dose 5 mg/kg, route oral
Conditions: in vivo
measurement.kind: Tmax

item.smiles | value
Cn1cnc(-c2cc3nccc(Oc4ccc(NC(=S)NC(=O)Cc5ccccc5)cc4F)c3s2)c1 | 1.1 h

====

Assay: Cmax in Sprague-Dawley rat at 5 mg/kg, po
Format: ADME, organism-based
Design: dose 5 mg/kg, route oral
Settings: in vivo

item.smiles | unit.symbol | Cmax
Cn1cnc(-c2cc3nccc(Oc4ccc(NC(=S)NC(=O)Cc5ccccc5)cc4F)c3s2)c1 | nM | 140

====

Biological target: Vascular endothelial growth factor receptor 2 (Homo sapiens)
Assay: Inhibition of GST tagged VEGFR2 expressed in Sf9 cells
pIC50: −log10 of the molar value.
Mark Yes for reported pIC50 of 7 or greater; mark No for anything smaller.

item.smiles | label.value
Cn1ncnc1-c1cc2nccc(Oc3ccc(NC(=S)NC(=O)Cc4ccccc4)cc3F)c2s1 | Yes
O=C(Cc1ccccc1)NC(=S)Nc1ccc(Oc2ccnc3cc(C(=O)N4CCCC4)sc23)c(F)c1 | Yes
O=C(Cc1ccccc1)NC(=S)Nc1ccc(Oc2ccnc3cc(-c4cccs4)sc23)c(F)c1 | Yes
O=C(Cc1ccccc1)NC(=S)Nc1ccc(Oc2ccnc3cc(C(=O)N4CCOCC4)sc23)c(F)c1 | No
Cn1cc(-c2cc3nccc(Oc4ccc(NC(=S)NC(=O)Cc5ccccc5)cc4F)c3s2)cn1 | Yes
COc1cc2nccc(Oc3ccc(NC(=S)NC(=O)Cc4ccccc4)cc3F)c2cc1OC | Yes

====

Target: Hepatocyte growth factor receptor (Homo sapiens, UniProt P08581)
Experiment: Inhibition of GST tagged c-Met expressed in High Five cells
Sequence (P08581 whole entry, the tested form may be a part): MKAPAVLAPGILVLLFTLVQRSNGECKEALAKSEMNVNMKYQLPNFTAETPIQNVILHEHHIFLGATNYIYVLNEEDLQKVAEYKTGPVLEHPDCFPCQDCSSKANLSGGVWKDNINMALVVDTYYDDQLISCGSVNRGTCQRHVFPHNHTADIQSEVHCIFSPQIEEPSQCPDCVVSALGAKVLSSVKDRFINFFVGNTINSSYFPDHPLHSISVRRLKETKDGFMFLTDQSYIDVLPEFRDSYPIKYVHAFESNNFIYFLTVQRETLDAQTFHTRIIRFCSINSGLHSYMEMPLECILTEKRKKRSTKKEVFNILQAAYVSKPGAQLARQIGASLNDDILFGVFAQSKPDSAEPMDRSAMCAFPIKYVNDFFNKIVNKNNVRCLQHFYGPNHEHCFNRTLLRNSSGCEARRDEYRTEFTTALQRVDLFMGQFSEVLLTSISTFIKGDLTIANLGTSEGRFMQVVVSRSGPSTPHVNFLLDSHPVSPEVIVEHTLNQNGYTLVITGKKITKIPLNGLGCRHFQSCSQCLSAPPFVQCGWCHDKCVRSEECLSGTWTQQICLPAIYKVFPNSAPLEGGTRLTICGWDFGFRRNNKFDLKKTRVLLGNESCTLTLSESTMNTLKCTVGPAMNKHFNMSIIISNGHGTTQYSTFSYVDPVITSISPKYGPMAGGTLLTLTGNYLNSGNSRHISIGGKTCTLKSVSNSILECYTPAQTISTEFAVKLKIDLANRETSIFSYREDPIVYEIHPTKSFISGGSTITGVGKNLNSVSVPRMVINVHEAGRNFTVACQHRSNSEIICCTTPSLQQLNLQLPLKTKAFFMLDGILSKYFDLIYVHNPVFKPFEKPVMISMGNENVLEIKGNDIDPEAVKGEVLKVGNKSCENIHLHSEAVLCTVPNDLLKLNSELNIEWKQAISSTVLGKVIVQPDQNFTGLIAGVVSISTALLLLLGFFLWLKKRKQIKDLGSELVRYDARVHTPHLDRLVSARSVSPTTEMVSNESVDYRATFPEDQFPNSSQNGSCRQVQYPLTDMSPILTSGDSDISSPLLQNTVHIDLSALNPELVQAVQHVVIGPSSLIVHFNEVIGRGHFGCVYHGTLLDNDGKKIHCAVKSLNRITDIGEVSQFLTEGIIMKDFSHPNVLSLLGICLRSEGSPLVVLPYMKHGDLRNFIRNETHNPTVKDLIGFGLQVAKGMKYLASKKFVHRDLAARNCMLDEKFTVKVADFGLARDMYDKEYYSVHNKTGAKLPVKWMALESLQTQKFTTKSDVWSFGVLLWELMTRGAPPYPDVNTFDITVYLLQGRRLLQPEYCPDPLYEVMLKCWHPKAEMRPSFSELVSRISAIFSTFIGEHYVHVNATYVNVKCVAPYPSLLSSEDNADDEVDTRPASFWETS
Listed compounds paired with reported IC50
measurement.kind: IC50 (µM)

item.smiles | measurement.kind | value
O=C(Cc1ccccc1)NC(=S)Nc1ccc(Oc2ccnc3cc(-c4nncs4)sc23)c(F)c1 | IC50 | 0.06
Cn1cccc1-c1cc2nccc(Oc3ccc(NC(=S)NC(=O)Cc4ccccc4)cc3F)c2s1 | IC50 | 0.049
O=C(Cc1ccccc1)NC(=S)Nc1ccc(Oc2ccnc3cc(C(=O)c4ccco4)sc23)c(F)c1 | IC50 | 0.13
O=C(Cc1ccccc1)NC(=S)Nc1ccc(Oc2ccnc3cc(-c4cncnc4)sc23)c(F)c1 | IC50 | 0.063
O=C(Cc1ccccc1)NC(=S)Nc1ccc(Oc2ccnc3cc(C(=O)N4CCOCC4)sc23)c(F)c1 | IC50 | 0.125
O=C(Cc1ccccc1)NC(=S)Nc1ccc(Oc2ccnc3cc(C(=O)N4CCCC4)sc23)c(F)c1 | IC50 | 0.054
CCN(CC)C(=O)c1cc2nccc(Oc3ccc(NC(=S)NC(=O)Cc4ccccc4)cc3F)c2s1 | IC50 | 0.114
Cn1ncnc1-c1cc2nccc(Oc3ccc(NC(=S)NC(=O)Cc4ccccc4)cc3F)c2s1 | IC50 | 0.069
CN1CCN(C(=O)c2cc3nccc(Oc4ccc(NC(=S)NC(=O)Cc5ccccc5)cc4F)c3s2)CC1 | IC50 | 0.193
Cn1cc(-c2cc3nccc(Oc4ccc(NC(=S)NC(=O)Cc5ccccc5)cc4F)c3s2)cn1 | IC50 | 0.024
O=C(Cc1ccccc1)NC(=S)Nc1ccc(Oc2ccnc3cc(-c4nccs4)sc23)c(F)c1 | IC50 | 0.065
CCn1ccnc1-c1cc2nccc(Oc3ccc(NC(=S)NC(=O)Cc4ccccc4)cc3F)c2s1 | IC50 | 0.108
O=C(Cc1ccccc1)NC(=S)Nc1ccc(Oc2ccnc3cc(-c4ccoc4)sc23)c(F)c1 | IC50 | 0.074
CCn1cnc(-c2cc3nccc(Oc4ccc(NC(=S)NC(=O)Cc5ccccc5)cc4F)c3s2)c1 | IC50 | 0.052

src = ChEMBL document CHEMBL1145636
